Target: T1, S1-69/70 DelFc (SARS-CoV-2, UniProt P0DTC2 14-685)
T1 construct: domain: S1
Experiment: Fc-tagged protein on receptor-expressing HEK293T cells (FIG. 13A)
PARAMETER: binding result

Form: binder = C-type lectin domain family 10 member A expressed on cells (receptor, whole, on cells; also called CLEC10A) MTRTYENFQYLENKVKVQGFKNGPLPLQSLLQRLCSGPCHLLLSLGLGLLLLVIICVVGFQNSKFQRDLVTLRTDFSNFTSNTVAEIQALTSQGSSLEETIASLKAEVEGFKQERQAGVSELQEHTTQKAHLGHCPHCPSVCVPVHSEMLLRVQQLVQDLKKLTCQVATLNNNASTEGTCCPVNWVEHQDSCYWFSHSGMSWAEAEKYCQLKNAHLVVINSREEQNFVQKYLGSAYTWMGLSDPEGAWKWVDGTDYATGFQNWKPGQPDDWQGHGLGGGEDCAHFHPDGRWNDDVCQRPYHWVCEAGLGQTSQESH ; binding result = binds

Form: binder = Asialoglycoprotein Receptor 1 expressed on cells (receptor, whole, on cells; also called ASGR1) MTKEYQDLQHLDNEESDHHQLRKGPPPPQPLLQRLCSGPRLLLLSLGLSLLLLVVVCVIGSQNSQLQEELRGLRETFSNFTASTEAQVKGLSTQGGNVGRKMKSLESQLEKQQKDLSEDHSSLLLHVKQFVSDLRSLSCQMAALQGNGSERTCCPVNWVEHERSCYWFSRSGKAWADADNYCRLEDAHLVVVTSWEEQKFVQHHIGPVNTWMGLHDQNGPWKWVDGTDYETGFKNWRPEQPDDWYGHGLGGGEDCAHFTDDGRWNDDVCQRPYRWVCETELDKASQEPPLL ; binding result = binds

Form: binder = Liver/lymph node-specific intercellular adhesion molecule-3-grabbing integrin expressed on cells (receptor, whole, on cells; also called L-SIGN; CLEC4M) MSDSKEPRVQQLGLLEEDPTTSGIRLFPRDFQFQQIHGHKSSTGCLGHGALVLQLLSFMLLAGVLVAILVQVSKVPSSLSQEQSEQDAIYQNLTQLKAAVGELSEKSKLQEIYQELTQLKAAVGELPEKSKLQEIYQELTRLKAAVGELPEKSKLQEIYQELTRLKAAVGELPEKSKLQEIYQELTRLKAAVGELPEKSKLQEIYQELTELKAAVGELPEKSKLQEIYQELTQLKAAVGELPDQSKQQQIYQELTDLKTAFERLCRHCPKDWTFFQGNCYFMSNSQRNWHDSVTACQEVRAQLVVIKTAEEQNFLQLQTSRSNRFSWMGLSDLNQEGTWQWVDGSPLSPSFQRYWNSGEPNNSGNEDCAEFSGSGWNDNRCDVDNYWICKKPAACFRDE ; binding result = binds

Data origin: patent US20220089695A1
